molecular target: hSST-3 (Homo sapiens); assay: competition binding assay, membranes of CHO cells expressing hSST-3, [125I-Tyr3]-octreotide; settings: competition with [125I-Tyr3]-octreotide; read-out: IC50 (nM) hSSTR-3
Sequence (P32745 whole entry): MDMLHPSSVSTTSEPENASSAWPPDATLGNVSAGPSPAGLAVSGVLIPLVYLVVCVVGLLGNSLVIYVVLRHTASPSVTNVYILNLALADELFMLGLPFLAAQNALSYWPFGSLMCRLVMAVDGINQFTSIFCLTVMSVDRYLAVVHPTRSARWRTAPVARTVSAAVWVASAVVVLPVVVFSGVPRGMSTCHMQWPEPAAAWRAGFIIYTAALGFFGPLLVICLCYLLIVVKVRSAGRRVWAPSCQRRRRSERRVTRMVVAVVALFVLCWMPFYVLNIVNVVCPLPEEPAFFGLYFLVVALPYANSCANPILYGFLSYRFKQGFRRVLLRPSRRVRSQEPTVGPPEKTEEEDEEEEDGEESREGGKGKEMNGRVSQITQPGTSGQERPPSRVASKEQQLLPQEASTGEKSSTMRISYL
Numbered stars: 1 amine (or outer) side, 2 acyl side, 3 side chain; on linkers, the order of the positions; unused ones are H or OH. Square brackets hold non-standard residues; d marks the D form. Side chains are listed from the residue outwards. Peptide text beside a SMILES is read from it. * marks the point of attachment. Ethylenediamine = C(CN[*:2])N[*:1]; cisHyp = O=C(O)[C@@H]1C[C@H](O)CN1; Hyp = O=C(O)[C@@H]1C[C@@H](O)CN1; NHCH2CH2NMe2 = CN(C)CCN*; CO = O=C([*:1])[*:2]; Bn = c1ccc(C*)cc1
OBSERVATION_TYPE: IC50 (nM)

CN(C)CCNC(=O)O[C@@H]1C[C@H]2C(=O)N[C@@H](Cc3ccccc3)C(=O)N[C@H](Cc3c[nH]c4ccccc34)C(=O)N[C@@H](CCCCN)C(=O)N[C@@H](COCc3ccccc3)C(=O)N[C@@H](Cc3ccccc3)C(=O)N2C1 [Example 36] (cyclo(F[Hyp]([CO-NHCH2CH2NMe2])F[dW]KS(Bn)))	2.4
NCCCC[C@@H]1NC(=O)[C@@H](Cc2c[nH]c3ccccc23)NC(=O)[C@H](Cc2ccccc2)NC(=O)[C@@H]2C[C@@H](OC(=O)NCCN)CN2C(=O)[C@H](Cc2ccccc2)NC(=O)[C@H](COCc2ccccc2)NC1=O [Example 31] (cyclo(F[Hyp]([CO-Ethylenediamine])F[dW]KS(Bn)))	3.9
NCCCC[C@@H]1NC(=O)[C@@H](Cc2c[nH]c3ccccc23)NC(=O)[C@H](Cc2ccccc2)NC(=O)[C@@H]2C[C@@H](O)CN2C(=O)[C@H](Cc2ccccc2)NC(=O)[C@H](Cc2ccc(OCc3ccccc3)cc2)NC1=O [Example 1, Cyclo [HyPro-Phe-DTrp-Lys-Tyr(Bzl)-Phe]] (cyclo(F[Hyp]F[dW]KY(Bn)))	1.9
NCCCC[C@@H]1NC(=O)[C@@H](Cc2c[nH]c3ccccc23)NC(=O)[C@H](Cc2ccccc2)NC(=O)[C@@H]2C[C@H](OC(=O)NCCN)CN2C(=O)[C@H](Cc2ccccc2)NC(=O)[C@H](COCc2ccccc2)NC1=O [Example 32] (cyclo(F[cisHyp]([CO-Ethylenediamine])F[dW]KS(Bn)))	57
NCCCC[C@@H]1NC(=O)[C@@H](Cc2c[nH]c3ccccc23)NC(=O)[C@H](Cc2ccccc2)NC(=O)[C@@H]2C[C@@H](OC(=O)NCCN)CN2C(=O)[C@H](Cc2ccccc2)NC(=O)[C@H](Cc2ccc(OCc3ccccc3)cc2)NC1=O [Example 2] (cyclo(F[Hyp]([CO-Ethylenediamine])F[dW]KY(Bn)))	0.93

Origin of values: patent US6225284A
